Origin of measurements: the RNAGym collection of RNA variant scans (doi:10.1002/anie.201605470)

B1: Osa-1-4 twister ribozyme (parent)
chain: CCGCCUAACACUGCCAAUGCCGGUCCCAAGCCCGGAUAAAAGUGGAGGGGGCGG

# Variants of: B1
# protocol: self-cleavage, relative activity (ratio to wild type); higher = more cleavage; co-transcriptional
Record form. Attribute: self-cleavage. Fill in for each entry.
Respond numerically, and do not add a unit to the figure.

Noted for A40C U43C : its self-cleavage reads 0.07

self-cleavage reading for A17G A36G : 0.99

C27U G34U yielded self-cleavage of 0.15

Form: variant = A10C G19A ; self-cleavage = 0.04

The value of self-cleavage measured for the variant A38U G35U turned out to be 0.89

get_value(item= C14A G35U , readout=self-cleavage) returns 0.09

The measured self-cleavage associated with C52A G22A reads 0.71

Kindly note the recorded self-cleavage for C33U G50C , which is 0.53

Note to self: self-cleavage recorded for G44C G47C was 0.11

// sample A38G G22U , its self-cleavage was 0.85

Lab book: self-cleavage of A36U C20U noted as 0.99

For A8G C25U the variant record lists self-cleavage as 0.16

The measured self-cleavage associated with C9U G42U reads 0.04

Per the records, this variant ( G13A G34C ) has self-cleavage equal to 0.05

In plain terms, A28U G49C has a documented self-cleavage of 0.06

For reference, reported self-cleavage for C9G U24G stands at 0.04

Reported self-cleavage for A8C C20A was 0.08

The variant listed as A8G C32A shows self-cleavage equal to 0.05

C14A C20U yielded self-cleavage of 0.16

Kindly note the recorded self-cleavage for A8C G47A , which is 0.04

Lab note: C33U G42U gave self-cleavage of 0.07

Reported self-cleavage for U18G U37A was 0.59

self-cleavage reading for A17U C52U : 1.01

Form field self-cleavage, entry G13U G22A : 0.03

Lab note: C33G C52G gave self-cleavage of 0.26

The reported value for A46U U24A in terms of self-cleavage is 0.04

The recorded self-cleavage for entry C11G G34A equals 0.07

# self-cleavage (variant: A36U A8U ) is 0.34

Consider C9G U18C . Its measured self-cleavage is 0.66

response.value for A8U G51C (field: self-cleavage) = 0.04

Sure, the documented self-cleavage for C27G G44C is 0.08

Measured self-cleavage, C20G C33A : 0.04

Field self-cleavage (entry A40C C9A ) reads 0.02

Field self-cleavage (entry A39G C25G ) reads 0.07

In plain terms, C14A G13A has a documented self-cleavage of 0.03

// recorded self-cleavage for C31G U18A : 0.1

// sample A10G A17U , its self-cleavage was 0.85

Value of self-cleavage reported for the variant C31G G48U is 0.02

The recorded self-cleavage for entry A46G G13C equals 0.02

According to the records, this variant C21G C26A displays self-cleavage of 0.02

A17C G47A has a reported self-cleavage of 0.07

Looking up G50U , I found its self-cleavage recorded as 1.02

Form: variant = G42A G45U ; self-cleavage = 0.05

Form field self-cleavage, entry A38U G35C : 0.13

Lab book: self-cleavage of A40U G47U noted as 0.09

Recorded self-cleavage (variant C31G C52G ): 0.15

Form field self-cleavage, entry A41U U18C : 0.93

Sure, the documented self-cleavage for A16G U24A is 0.48

Value of self-cleavage reported for the variant C11U G13C is 0.04

variant A8U C32G , self-cleavage observed: 0.07

Please fill in: self-cleavage reported for A28C G51C = 0.12

// C14U U12G : self-cleavage value = 0.05

Looking up A39G G30A , I found its self-cleavage recorded as 0.05

Entry A8U G45C — recorded self-cleavage = 0.04

Noted for C25U G45A : its self-cleavage reads 0.06

Looking up A10U U12G , I found its self-cleavage recorded as 0.02

Query A28U U12G yields self-cleavage of 0.11

So for C31G G50A , the logged self-cleavage turned out to be 0.11

The variant identified as A36U G19A registered its self-cleavage at 0.48

The value of self-cleavage measured for the variant A41G A8G turned out to be 0.19

So for A8G U43C , the logged self-cleavage turned out to be 0.14

Item: A7U U37G | self-cleavage: 0.1

Quick note, self-cleavage for G53U U12C landed at 0.13

Sure, the documented self-cleavage for C11U G50C is 0.72

Reported self-cleavage for A39C G44A was 0.71

Query G42U U43C yields self-cleavage of 0.09

Entry under test: C26A G44A . Its self-cleavage was 0.05

Consider C33A G53A . Its measured self-cleavage is 0.08

Value of self-cleavage reported for the variant C31U U24C is 0.05

GET /value?item= C25G U12G &field=self-cleavage returns 0.04

The variant listed as A29G C15U has a reported self-cleavage of 0.05

Summary for this variant, C31U U43A : self-cleavage is 0.17

Entry under test: A40U U18A . Its self-cleavage was 0.77

The variant listed as C15U G35A has a reported self-cleavage of 0.59

Reported self-cleavage for C33A C52G was 0.17

variant A17G A41C , self-cleavage observed: 0.9

Notebook: A28U G34C , self-cleavage read as 0.18

Record C14G G13C , field self-cleavage: 0.01

Item: A10G G48A | self-cleavage: 0.07

// G23U : self-cleavage value = 0.18

So, A10U C32G ? Its self-cleavage was 0.04

Item: A16C G51C | self-cleavage: 0.12

Value of self-cleavage reported for the variant C21U G49C is 0.08

self-cleavage recorded for this variant, C32G G48A , is 0.05

// C11A G19U : self-cleavage value = 0.06

So for C25U G23C , the logged self-cleavage turned out to be 0.06

So, G47A U43C ? Its self-cleavage was 0.09

# variant A17C G23U ; its self-cleavage = 0.04

self-cleavage recorded for this variant, A39C U37G , is 0.98

Record A16C U18A , field self-cleavage: 0.92

self-cleavage recorded for this variant, C26G G47C , is 0.04
